Cited source for all entries: patent US20230189808A1

system: ZEAMA Sileno; assay: Safener seed treatment with pre-emergence herbicide application, crop damage test in greenhouse; assay type: in vivo, maize; parameters: key: difference in % crop damage (visual score vs untreated control); details: herbicide 40 g a.i./ha, furilazole 0.25 g a.i./kg seed, 26 DAT
Reduction [Difference] vs 60: at or above is class 1, below is class 0.

> print(dat)
                                   compound  category.label
1  COC(=O)C1=C[C@@H](NC(=O)[C@@]2(C)CC(c3cc(F)cc(F)c3)=NO2)CC1 [Example 1.63]         class 0
2  C=CC1(C(=O)NC2COC(C(=O)OC)C2)CC(c2cc(F)cc(F)c2)=NO1 (centres unmarked) [Example 1.70]         class 0
3  C=CC1(C(=O)NC2C=CC(C(=O)OC)C2)CC(c2cc(F)cc(F)c2)=NO1 (centres unmarked) [Example 1.26]         class 0
4  C=CC1(C(=O)NC2COC(C(=O)OC)C2)CC(c2cc(F)cc(F)c2)=NO1 (mixture of isomers) [Example 1.68]         class 1

----------
tested on: ZEAMA Sileno; assay: Safener seed treatment with pre-emergence herbicide application, crop damage test in greenhouse; assay type: in vivo, maize; parameters: key: difference in % crop damage (visual score vs untreated control); conditions: herbicide 80 g a.i./ha, furilazole 0.25 g a.i./kg seed, 14 DAT
Reduction [Difference] vs 40: at or above is true, below is false.

> print(dat)
                                   compound  category.label
1  C=CC1(C(=O)NC2COC(C(=O)OC)C2)CC(c2cc(F)cc(F)c2)=NO1 (mixture of isomers) [Example 1.68]           false
2  C=CC1(C(=O)NC2COC(C(=O)OC)C2)CC(c2cc(F)cc(F)c2)=NO1 (centres unmarked) [Example 1.70]            true
3  COCCOC(=O)C1C=CC(NC(=O)C2(C(F)(F)F)CC(c3cc(F)cc(C#N)c3)=NO2)C1 (centres unmarked)            true
4  CC1(C(=O)NC2C=CC(C(=O)O)C2)CC(c2cc(F)cc(F)c2)=NO1 (centres unmarked)           false
5  C=CC1(C(=O)NC2C=C(C(=O)OC)OC2)CC(c2cc(C)cc(C)c2)=NO1 (centres unmarked)           false
6  C=CC1(C(=O)NC2C=CC(C(=O)OC)C2)CC(c2cc(F)cc(F)c2)=NO1 (centres unmarked)            true
7  COCCOC(=O)C1C=CC(NC(=O)C2(C)CC(c3cc(Cl)cc(C#N)c3)=NO2)C1 (centres unmarked)           false
8  CN(C)C(=O)SCCOC(=O)C1C=CC(NC(=O)C2(C)CC(c3cc(F)cc(F)c3)=NO2)C1 (centres unmarked)           false

----------
test system: ZEAMA Sileno; experiment: Safener seed treatment with pre-emergence herbicide application, crop damage test in greenhouse; assay type: in vivo, maize; settings: herbicide 80 g a.i./ha, furilazole 0.25 g a.i./kg seed, 14 DAT
Reduction [%] vs 40%: at or above is t, below is f.

> print(dat)
                                   compound  system.tested  category.label
1  C=CC1(C(=O)NC2C=C(C(=O)OC)OC2)CC(c2cc(C)cc(C)c2)=NO1 (centres unmarked)   ZEAMA Sileno               t
2  C=CC1(C(=O)NC2COC(C(=O)OC)C2)CC(c2cc(F)cc(F)c2)=NO1 (centres unmarked) [Example 1.70]   ZEAMA Sileno               t
3  COCCOC(=O)C1C=CC(NC(=O)C2(C(F)(F)F)CC(c3cc(F)cc(C#N)c3)=NO2)C1 (centres unmarked)   ZEAMA Sileno               t
4  C=CC1(C(=O)NC2C=CC(C(=O)OC)C2)CC(c2cc(F)cc(F)c2)=NO1 (centres unmarked)   ZEAMA Sileno               t
5  C=CC1(C(=O)NC2COC(C(=O)OC)C2)CC(c2cc(F)cc(F)c2)=NO1 (mixture of isomers) [Example 1.68]   ZEAMA Sileno               f
6  CN(C)C(=O)SCCOC(=O)C1C=CC(NC(=O)C2(C)CC(c3cc(F)cc(F)c3)=NO2)C1 (centres unmarked)   ZEAMA Sileno               t
7  COCCOC(=O)C1C=CC(NC(=O)C2(C)CC(c3cc(Cl)cc(C#N)c3)=NO2)C1 (centres unmarked)   ZEAMA Sileno               f
